Readings of log10 of IC50 for the listed molecules
molecular target: hAChE (Homo sapiens, UniProt P22303)
Sequence (P22303 32-614): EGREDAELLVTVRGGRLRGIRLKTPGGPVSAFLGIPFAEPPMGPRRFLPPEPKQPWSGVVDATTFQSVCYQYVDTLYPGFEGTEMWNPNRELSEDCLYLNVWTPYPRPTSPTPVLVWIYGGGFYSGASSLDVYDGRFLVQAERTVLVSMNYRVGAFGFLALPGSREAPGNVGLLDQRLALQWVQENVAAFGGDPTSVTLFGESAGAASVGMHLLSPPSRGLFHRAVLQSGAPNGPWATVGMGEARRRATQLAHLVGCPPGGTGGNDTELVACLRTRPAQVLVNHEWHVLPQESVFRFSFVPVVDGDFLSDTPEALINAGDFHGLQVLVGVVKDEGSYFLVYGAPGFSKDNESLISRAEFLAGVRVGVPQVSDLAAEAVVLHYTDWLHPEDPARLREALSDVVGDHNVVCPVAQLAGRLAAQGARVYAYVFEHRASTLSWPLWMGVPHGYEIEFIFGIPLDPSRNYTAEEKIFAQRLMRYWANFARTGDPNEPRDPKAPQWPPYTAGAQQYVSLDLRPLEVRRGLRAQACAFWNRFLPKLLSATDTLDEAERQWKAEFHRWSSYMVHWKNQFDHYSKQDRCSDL
Reminder: these figures are log10 of reported IC50, in µM before transformation.

MOLECULE | log10 of IC50
COc1cccc(C2c3ccc(OCC(=O)c4ccc(Cl)cc4)cc3Oc3nc4c(c(N)c32)CCCC4)c1 (centres unmarked) | 0.78
Nc1c2c(nc3c1C(c1cccc([N+](=O)[O-])c1)c1ccc(OS(=O)(=O)c4ccc(F)cc4)cc1O3)CCCC2 (centres unmarked) | -0.21
COc1ccccc1C1c2ccc(OCC(=O)c3ccccc3)cc2Oc2nc3c(c(N)c21)CCCC3 (centres unmarked) | 0.39
Nc1c2c(nc3c1C(c1cccc([N+](=O)[O-])c1)c1ccc(OCC(=O)c4ccc(Cl)cc4)cc1O3)CCCC2 (centres unmarked) | -0.36
COc1cccc(C2c3ccc(OCC(=O)c4ccccc4)cc3Oc3nc4c(c(N)c32)CCCC4)c1 (centres unmarked) | 1.49

Form entry - test system: hAChE (Homo sapiens, UniProt P22303); read-out: log10 of IC50; molecule: Nc1c2c(nc3c1C(c1cccc(Br)c1)c1ccc(OS(=O)(=O)c4ccc(F)cc4)cc1O3)CCCC2 (centres unmarked)
0.59

Form entry - test system: hAChE (Homo sapiens, UniProt P22303); read-out: log10 of IC50; molecule: COc1ccccc1C1c2ccc(OS(=O)(=O)c3ccc(F)cc3)cc2Oc2nc3c(c(N)c21)CCCC3 (centres unmarked)
1.35

Form entry - test system: hAChE (Homo sapiens, UniProt P22303); read-out: log10 of IC50; molecule: Cc1ccc(S(=O)(=O)Oc2ccc3c(c2)Oc2nc4c(c(N)c2C3c2ccc(Cl)c(Cl)c2)CCCC4)cc1 (centres unmarked)
-0.33

---

Readings of IC50 for the listed molecules
biological target: hAChE (Homo sapiens, UniProt P22303)
Give your result in µM as a bare value.

Before answering, review these 4 worked examples.
MOLECULE | QUANTITATIVE_RESULT
COc1ccc(S(=O)(=O)Oc2ccc3c(c2)Oc2nc4c(c(N)c2C3c2cccc(Br)c2)CCCC4)cc1 (centres unmarked) | 0.73
Cc1ccc(S(=O)(=O)Oc2ccc3c(c2)Oc2nc4c(c(N)c2C3c2cccc(Br)c2)CCCC4)cc1 (centres unmarked) | 9.35
COc1ccccc1C1c2ccc(O)cc2Oc2nc3c(c(N)c21)CCCC3 (centres unmarked) | 5.88
Nc1c2c(nc3c1C(c1cccc(Br)c1)c1ccc(OCC(=O)c4ccccc4)cc1O3)CCCC2 (centres unmarked) | 1.14

Give the measured IC50 of COc1ccc(S(=O)(=O)Oc2ccc3c(c2)Oc2nc4c(c(N)c2C3c2ccccc2OC)CCCC4)cc1 (centres unmarked) .
5.16

Give the measured IC50 of COc1cccc(C2c3ccc(OS(=O)(=O)c4ccccc4)cc3Oc3nc4c(c(N)c32)CCCC4)c1 (centres unmarked) .
2.45

Give the measured IC50 of Cc1ccc(S(=O)(=O)Oc2ccc3c(c2)Oc2nc4c(c(N)c2C3c2cccc([N+](=O)[O-])c2)CCCC4)cc1 (centres unmarked) .
11.1

Give the measured IC50 of Nc1c2c(nc3c1C(c1cccc(Br)c1)c1ccc(OS(=O)(=O)c4ccccc4)cc1O3)CCCC2 (centres unmarked) .
1.34

---

molecular target: UniProtKB P06276; assay: In vitro BuChE inhibition assay; format: biochemical
Sequence (P06276 29-602): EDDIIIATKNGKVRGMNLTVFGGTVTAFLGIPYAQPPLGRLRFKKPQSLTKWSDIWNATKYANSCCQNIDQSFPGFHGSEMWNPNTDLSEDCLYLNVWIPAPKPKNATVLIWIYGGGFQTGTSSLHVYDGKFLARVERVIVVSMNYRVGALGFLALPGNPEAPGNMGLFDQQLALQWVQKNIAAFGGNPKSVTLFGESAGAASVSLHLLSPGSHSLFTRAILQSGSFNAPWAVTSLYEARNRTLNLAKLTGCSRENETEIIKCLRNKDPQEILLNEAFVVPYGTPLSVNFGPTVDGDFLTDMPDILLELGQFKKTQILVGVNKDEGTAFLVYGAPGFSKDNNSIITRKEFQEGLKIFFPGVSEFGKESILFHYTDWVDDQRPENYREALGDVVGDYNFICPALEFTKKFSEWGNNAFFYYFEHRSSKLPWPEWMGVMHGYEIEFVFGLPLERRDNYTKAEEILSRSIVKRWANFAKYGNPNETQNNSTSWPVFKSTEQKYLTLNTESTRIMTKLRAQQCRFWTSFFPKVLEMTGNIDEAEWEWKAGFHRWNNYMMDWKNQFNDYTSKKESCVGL
Readings of fold more active than rivastigmine (BuChE inhibition) for the listed compounds
Give your result in fold as a bare value.

COMPOUND | QUANTITATIVE_RESULT
Nc1c2c(nc3c1C(c1cccc([N+](=O)[O-])c1)c1ccc(OCC(=O)c4ccc(Cl)cc4)cc1O3)CCCC2 (stereo not shown) [5c] | 10

Give the measured fold more active than rivastigmine (BuChE inhibition) of Nc1c2c(nc3c1C(c1ccc(Cl)c(Cl)c1)c1ccc(OCC(=O)c4ccc(Cl)cc4)cc1O3)CCCC2 (stereo not shown) [5d] .
5
